Consider the following binders and their measured kon readings.
Target: T1, VEGF165 (UniProt P15692-4 27-191, biotinylated in the ELISA of Example 4 (site not stated))
T1 construct: also called biotinylated VEGF165; soluble VEGF
T1 sequence (P15692 other isoform, or with tags, fused parts or gaps limits assumed): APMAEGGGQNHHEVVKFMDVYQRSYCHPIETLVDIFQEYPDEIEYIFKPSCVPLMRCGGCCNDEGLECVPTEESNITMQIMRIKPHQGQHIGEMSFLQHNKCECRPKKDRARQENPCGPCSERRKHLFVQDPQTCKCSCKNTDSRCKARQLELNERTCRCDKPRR
Assay: SPR (ProteOn), VEGF165 immobilized, multi-trace 50-0.195 nM, 25 C
Provide only the numeric value, understood in M⁻¹ s⁻¹.

binder	test.readout	test.value
2-in-1 DARPin 18 (SEQ ID NO: 11) (designed binder, N4C mono-domain; purified by its His-tag) DLDKKLLEAARAGQDDEVRILLKAGADVNAKDSTGWTPLHLAAPWGHPEIVEVLLKAGADVNAKDFQGWTPLHLAAAAGHLEIVEVLLKAGADVNAKDVYGWTPLHIAAASGHLEIVEVLLKAGADVNAKDWLGWTPLHLAASHGHLEIVEVLLKAGADVNAQDKSGKTPADLAARAGHQDIAEVLQKAA	kon	1.16e+06
2-in-1 DARPin 19 (SEQ ID NO: 12) (designed binder, N4C mono-domain; purified by its His-tag) DLDKKLLEAARAGQDDEVRILLKAGADVNAKDSTGWTPLHLAAPWGHPEIVEVLLKAGADVNAKDFKGWTPLHLAAAAGHLEIVEVLLKAGADVNAKDVYGWTPLHLAAAAGHLEIVEVLLKAGADVNAKDWLGWTPLHLAASHGHLEIVEVLLKAGADVNAQDKSGKTPADLAARAGHQDIAEVLQKAA	kon	1.38e+06

Let's switch to this binder now.
Please give measured kon of the following entry: 2-in-1 DARPin 12 (SEQ ID NO: 7) (designed binder, N3C mono-domain; purified by its His-tag) DLDKKLLEAARAGQDDEVRILLKAGADVNAKDSTGWTPLHLAAPWGHPEIVEVLLKAGADVNAKDVYGWTPLHLAAAAGHLEIVEVLLKAGADVNAKDWLGWTPLHLAASHGHLEIVEVLLKAGADVNAQDKSGKTPADLAARAGHQDIAEVLQKAA
1.59e+06
